# testSystem: HLA-A*32:01
# experimentNotes: IEDB peptide-MHC binding, purified MHC/competitive/radioactivity; filed as Kd, often an IC50 or EC50 that approximates it; bounds were set here for any values at or beyond the usual limits of such assays
# conditionSummary: source organism: Mammarenavirus brazilense
pKd: −log10 of the molar value.

seq | pKd
LLSEMLNKEY | ≤ 4.41

====

# testSystem: HLA-B*58:01
# experimentNotes: IEDB peptide-MHC binding, purified MHC/direct/fluorescence; filed as Kd, often an IC50 or EC50 that approximates it; bounds were set here for any values at or beyond the usual limits of such assays
# conditionSummary: source organism: Influenza A virus (A/Hong Kong/213/2003(H5N1))
measurementType: Kd (nM)

seq | measurementType | unitString | experimentalResult
CFMYSDFHF | Kd | nM | 74.5

====

# testSystem: HLA-A*24:02
# experimentNotes: IEDB peptide-MHC binding, purified MHC/competitive/fluorescence; filed as Kd, often an IC50 or EC50 that approximates it; bounds were set here for any values at or beyond the usual limits of such assays
# conditionSummary: source organism: West Nile virus
pKd: −log10 of the molar value.
measurementType: pKd

seq | experimentalResult
RYLVKTESW | 9.40

====

# testSystem: HLA-A*23:01
# experimentNotes: IEDB peptide-MHC binding, purified MHC/competitive/radioactivity; filed as Kd, often an IC50 or EC50 that approximates it; bounds were set here for any values at or beyond the usual limits of such assays
# conditionSummary: source organism: Mammarenavirus machupoense
Attribute: Kd

seq | unitString | valuePrefix | Kd
VGIPTHRHL | µM | = | 14
LCMLNNSLYY | µM | ≥ | 40.4

====

# testSystem: HLA-B*44:02
# experimentNotes: IEDB peptide-MHC binding, purified MHC/direct/fluorescence; filed as Kd, often an IC50 or EC50 that approximates it; bounds were set here for any values at or beyond the usual limits of such assays
# conditionSummary: source organism: Mycobacterium tuberculosis C
pKd: −log10 of the molar value.

seq | pKd
IIRTENRPL | ≤ 4.70

====

# testSystem: HLA-A*01:01
# experimentNotes: IEDB peptide-MHC binding, purified MHC/direct/fluorescence; filed as Kd, often an IC50 or EC50 that approximates it; bounds were set here for any values at or beyond the usual limits of such assays
# conditionSummary: source organism: Influenza A virus (A/Turkey/MO/24093/99(H1N2))

seq | testSystem | Kd
GMQIRGFVY | HLA-A*01:01 | ≥ 20 µM

====

Reported pKd is given for each of the following sequences.
# testSystem: HLA-A*02:03
# experimentNotes: IEDB peptide-MHC binding, purified MHC/competitive/radioactivity; filed as Kd, often an IC50 or EC50 that approximates it; bounds were set here for any values at or beyond the usual limits of such assays
# conditionSummary: source organism: Vaccinia virus WR
pKd: −log10 of the molar value.

seq | valuePrefix | pKd
ILPDKIDGL | = | 8.46
SIMSMMNIT | = | 6.17
KVDDTFYYV | ≤ | 4.11
SLVITYCLVT | = | 6.25
STAEQLSKYV | = | 5.73
DIMTSTRTI | = | 7.10
GLCNYGGIL | = | 6.90
MTSTRTIIL | = | 6.08
TAGNKVDVDI | = | 5.46
HLRASTTENA | = | 7.42
YALEPRKEI | = | 5.15
DTCGASINIT | ≤ | 4.15
STDQDTMLFA | = | 5.33
AVITETIPI | = | 7.37
GLRQQLEDI | = | 8.33
NTLISSDGA | = | 5.45
FTNSQIFNI | = | 8.15
VISTIANSNI | = | 6.07
YISRDELWA | = | 6.62
LTGNNTITT | = | 5.25
LMIGNYFSGV | = | 10.03
IVSKCIVQSV | = | 7.51
KISVEKIKQT | = | 5.05
TVLTSVDIET | = | 6.04
ALTDVEKRI | = | 5.83
YIEDELRRAA | = | 6.78

Values compiled from the Immune Epitope Database (IEDB).
